B1: HDV Ribozyme (parent)
chain: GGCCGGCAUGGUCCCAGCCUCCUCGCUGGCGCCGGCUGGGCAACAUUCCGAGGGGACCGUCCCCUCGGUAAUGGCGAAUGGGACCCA

Variants of: B1
ASSAY_REMARKS: self-cleavage, relative activity (ratio to wild type); higher = more cleavage; co-transcriptional
self-cleavage listing for selected variants.
No unit in the answer, please; the number alone is enough.

VARIANT_LABEL	self-cleavage
U46C G55C	0.554

Inquiry: Report self-cleavage for U12C C15G
Reply text: 0.147

Inquiry: Report self-cleavage for C33A U72A
Reply text: 0.208

Inquiry: Report self-cleavage for G81A A87C
Reply text: 0.455

Inquiry: Report self-cleavage for A56G C84A
Reply text: 1.16

Inquiry: Report self-cleavage for C22G U72G
Reply text: 0.0554

Inquiry: Report self-cleavage for G29A C66U
Reply text: 0.114

Inquiry: Report self-cleavage for C19G A56U
Reply text: 0.0573

Inquiry: Report self-cleavage for G50C C63U
Reply text: 0.997

Inquiry: Report self-cleavage for C19G G53C
Reply text: 0.0852

Inquiry: Report self-cleavage for C36U U79G
Reply text: 0.325

Inquiry: Report self-cleavage for A16U G74A
Reply text: 0.388

Inquiry: Report self-cleavage for G39C U69C
Reply text: 0.401

Inquiry: Report self-cleavage for U65C G81A
Reply text: 0.358

Inquiry: Report self-cleavage for C44A G73U
Reply text: 0.397

Inquiry: Report self-cleavage for A16U U37G
Reply text: 0

Inquiry: Report self-cleavage for C32G G39A
Reply text: 0.157

Inquiry: Report self-cleavage for C33A A51G
Reply text: 0.289

Inquiry: Report self-cleavage for A43U G74U
Reply text: 0.684
